Recorded measurements of Inhibition of reuptake of DA, one per entry
- system.name: reuptake of dopamine (DA) by brain synaptosomes (Rattus norvegicus, UniProt P23977)
- Construct: taking striatum for the [^3H]DA reuptake experiment; from tissue; host or cells: rat brain striatum synaptosomes
- Sequence (P23977 whole entry): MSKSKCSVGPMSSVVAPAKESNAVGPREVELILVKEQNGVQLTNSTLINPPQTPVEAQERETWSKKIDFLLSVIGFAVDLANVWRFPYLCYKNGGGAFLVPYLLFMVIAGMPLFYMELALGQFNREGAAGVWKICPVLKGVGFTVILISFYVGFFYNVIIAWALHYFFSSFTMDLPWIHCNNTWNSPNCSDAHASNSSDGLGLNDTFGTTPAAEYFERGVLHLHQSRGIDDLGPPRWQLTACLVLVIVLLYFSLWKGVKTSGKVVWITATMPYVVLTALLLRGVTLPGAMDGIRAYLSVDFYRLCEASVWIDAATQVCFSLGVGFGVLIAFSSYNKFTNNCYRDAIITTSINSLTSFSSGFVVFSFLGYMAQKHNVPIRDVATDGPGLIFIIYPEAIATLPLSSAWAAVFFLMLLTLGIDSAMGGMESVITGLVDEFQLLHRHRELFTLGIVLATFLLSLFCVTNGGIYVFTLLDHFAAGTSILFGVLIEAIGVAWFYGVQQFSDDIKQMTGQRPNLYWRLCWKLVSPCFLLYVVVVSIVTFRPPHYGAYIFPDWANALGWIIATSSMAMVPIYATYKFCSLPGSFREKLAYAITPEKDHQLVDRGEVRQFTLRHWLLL
- assay.text: [3H]DA reuptake by rat brain synaptosomes
- Assay type: biochemical
- condition.label: rat striatum synaptosomes; 0.1 mmol/L for control drug and drug to be detected
Simply state the number, no unit and no words.

q: Please state recorded Inhibition of reuptake of DA (tested on reuptake of dopamine (DA) by brain synaptosomes (Rattus norvegicus, UniProt P23977)) of COc1ccc2cc([C@@H](O)[C@H](C)N3CCC(Cc4ccccc4)CC3)ccc2c1Cl [Compound V-2]
a: 93.1

q: Hello, I am looking for reported Inhibition of reuptake of DA with reuptake of dopamine (DA) by brain synaptosomes (Rattus norvegicus, UniProt P23977) for COc1ccc2cc(C(O)C(C)N3CCC(=Cc4ccc(F)cc4)CC3)ccc2c1Cl (stereo not shown) [Compound V-34] . Could you help?
a: 99.1

q: Lab request: please report Inhibition of reuptake of DA under test system reuptake of dopamine (DA) by brain synaptosomes (Rattus norvegicus, UniProt P23977) for COc1ccc2cc(C(O)CCN3CCC(=Cc4ccccc4)CC3)ccc2c1Cl (stereo not shown) [Compound V-32]
a: 92.4

q: Recorded Inhibition of reuptake of DA for COc1ccc2cc([C@@H](O)[C@H](C)N3CCC(OCc4ccccc4)CC3)ccc2c1Cl [Compound V-50] with reuptake of dopamine (DA) by brain synaptosomes (Rattus norvegicus, UniProt P23977), please?
a: 23.1

q: Look up Inhibition of reuptake of DA with reuptake of dopamine (DA) by brain synaptosomes (Rattus norvegicus, UniProt P23977) for this molecule: COc1ccc2cc([C@@H](O)[C@H](C)N3CC=C(Cc4ccccc4)CC3)ccc2c1Cl [Compound V-40]
a: 50.7

q: Which measured Inhibition of reuptake of DA belongs to COc1ccc2cc([C@@H](O)[C@H](C)N3CCC(O)(Cc4ccccc4)CC3)ccc2c1Cl [Compound V-14] , tested on reuptake of dopamine (DA) by brain synaptosomes (Rattus norvegicus, UniProt P23977)?
a: 91.0

q: Record COc1ccc2cc(C(O)C(C)N3CCC(=Cc4ccccc4)CC3)ccc2c1Cl (stereo not shown) [Compound V-38] : what is its Inhibition of reuptake of DA with reuptake of dopamine (DA) by brain synaptosomes (Rattus norvegicus, UniProt P23977)?
a: 99.6
